- experimentalTarget: HA of A/Victoria/361/11 (H3N2) (influenza A virus)
- assayDetails: cell-based or functional assay
assayReadout: Neutralization IC50, H3-VC11
# answer = value followed by unit

Incoming: Quick one: Neutralization IC50, H3-VC11 of Antibody 3 (antibody, V domains shown) VH: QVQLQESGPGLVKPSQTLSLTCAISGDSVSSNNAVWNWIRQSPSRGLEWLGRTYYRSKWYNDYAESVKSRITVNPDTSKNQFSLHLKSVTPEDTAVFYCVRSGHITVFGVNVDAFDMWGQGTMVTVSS VL: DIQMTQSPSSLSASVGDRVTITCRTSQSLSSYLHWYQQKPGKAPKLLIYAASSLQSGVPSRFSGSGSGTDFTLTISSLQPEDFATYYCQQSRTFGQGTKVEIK ?
Outgoing: 3.4 µg/mL

Incoming: Quick one: Neutralization IC50, H3-VC11 of Antibody 11 (antibody, V domains shown) VH: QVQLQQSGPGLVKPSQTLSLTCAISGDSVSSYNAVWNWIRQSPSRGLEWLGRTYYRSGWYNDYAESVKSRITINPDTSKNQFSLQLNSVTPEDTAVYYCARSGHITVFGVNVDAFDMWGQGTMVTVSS VL: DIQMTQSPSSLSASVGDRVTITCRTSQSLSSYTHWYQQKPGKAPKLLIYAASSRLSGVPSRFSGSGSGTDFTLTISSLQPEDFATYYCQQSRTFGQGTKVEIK ?
Outgoing: 0.85 µg/mL

Incoming: Quick one: Neutralization IC50, H3-VC11 of Antibody 12 (antibody, V domains shown) VH: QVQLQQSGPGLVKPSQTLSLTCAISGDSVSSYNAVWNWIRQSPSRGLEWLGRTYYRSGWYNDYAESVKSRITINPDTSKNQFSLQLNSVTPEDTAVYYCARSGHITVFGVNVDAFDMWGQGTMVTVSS VL: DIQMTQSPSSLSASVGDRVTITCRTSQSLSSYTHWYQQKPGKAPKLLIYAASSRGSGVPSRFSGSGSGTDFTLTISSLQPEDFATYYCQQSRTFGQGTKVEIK ?
Outgoing: 0.83 µg/mL
